assay: In vivo pharmacokinetic properties in mice; design: species or system mouse; conditions: mouse, plasma, oral; male ICR mice; single intravenous 5 mg/kg and intragastric 250 mg/kg study
parameter.measured: AUC(0-inf) (ng·h/mL)
Report the value in ng·h/mL with no unit label.

Reported AUC(0-inf) ( CCN(c1cc(O[C@H]2C[C@H](N3CCOCC3)C2)cc(C(=O)NCc2c(C)cc(C)[nH]c2=O)c1C)C1CC2CCC(C1)O2 (stereo partly drawn) ) = 18800

Reported AUC(0-inf) ( CCN(c1cc(O[C@H]2C[C@H](N3CCCCC3)C2)cc(C(=O)NCc2c(C)cc(C)[nH]c2=O)c1C)C1CCC(F)(F)CC1 ) = 89500

Reported AUC(0-inf) ( CCN(c1cc(O[C@H]2C[C@H](N3CCCCC3)C2)cc(C(=O)NCc2c(OC)cc(C)[nH]c2=O)c1C)C1CCOCC1 ) = 21500

Reported AUC(0-inf) ( CCN(c1cc(O[C@H]2C[C@H](N3C[C@@H](C)O[C@@H](C)C3)C2)cc(C(=O)NCc2c(C)cc(C)[nH]c2=O)c1C)C1CCC(F)(F)CC1 ) = 50900

Reported AUC(0-inf) ( CCN(c1cc(O[C@H]2C[C@H](N3C[C@@H](C)O[C@@H](C)C3)C2)cc(C(=O)NCc2c(C)cc(C)[nH]c2=O)c1C)C1CC2CCC(C1)O2 (stereo partly drawn) ) = 48000

Reported AUC(0-inf) ( CCN(c1cc(O[C@H]2C[C@H](N3CCCCC3)C2)cc(C(=O)NCc2c(C)cc(C)[nH]c2=O)c1Cl)C1CCOCC1 ) = 31200

Reported AUC(0-inf) ( CCN(c1cc(O[C@H]2C[C@H](N3CCC(C)CC3)C2)cc(C(=O)NCc2c(C)cc(C)[nH]c2=O)c1Cl)C1CCOCC1 ) = 43000

Reported AUC(0-inf) ( CCN(c1cc(O[C@H]2C[C@H](N3C[C@@H](C)O[C@@H](C)C3)C2)cc(C(=O)NCc2c(OC)cc(C)[nH]c2=O)c1C)C1CCC(F)(F)CC1 ) = 47800

Reported AUC(0-inf) ( CCN(c1cc(O[C@H]2C[C@H](N3C[C@@H](C)O[C@@H](C)C3)C2)cc(C(=O)NCc2c(OC)cc(C)[nH]c2=O)c1C)C1CC2CCC(C1)O2 (stereo partly drawn) ) = 23000

Reported AUC(0-inf) ( CCN(c1cc(O[C@H]2C[C@H](N3CCCCC3)C2)cc(C(=O)NCc2c(C)cc(C)[nH]c2=O)c1C)C1CCOCC1 ) = 25200

Reported AUC(0-inf) ( CCN(c1cc(O[C@H]2C[C@H](N3CCCCC3)C2)cc(C(=O)NCc2c(OC)cc(C)[nH]c2=O)c1C)C1CCC(F)(F)CC1 ) = 51600

Reported AUC(0-inf) ( CCN(c1cc(O[C@H]2C[C@H](N3CCOCC3)C2)cc(C(=O)NCc2c(C)cc(C)[nH]c2=O)c1C)C1CCOCC1 ) = 18800
